measurement-target: T1, human CD3 on CD3+ Jurkat cells (human, UniProt P07766 23-207)
T1 construct: whole, on cells; Native CD3 complex on cells; the other CD3 chains are not specified for this assay; also called Human CD3+ Jurkat
T1 sequence (P07766 23-207): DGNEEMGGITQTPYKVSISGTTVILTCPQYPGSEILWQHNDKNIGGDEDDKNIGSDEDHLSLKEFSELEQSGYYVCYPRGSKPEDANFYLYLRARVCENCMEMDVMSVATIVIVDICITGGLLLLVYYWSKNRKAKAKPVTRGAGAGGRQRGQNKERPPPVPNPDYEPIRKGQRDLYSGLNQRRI
protocol: flow cytometry, 100 nM IgG on CD3+ Jurkat cells, pH 7.4
readout: MFI pH 7.4 (MFI)
Respond with the bare value in MFI.

binder	endpoint-unit	experimental-result
SAD10318_P01_G02 (ADI-48586) (antibody, V domains shown, IgG; also called Ab25) VH: QVQLVQSGAEVKKPGASVKVSCKASGFNIKDYYMHWVRQAPGQRLEWMGWIDLENANTIYDAKFQGRVTITRDTSASTAYMELSSLRSEDTAVYYCARDAYHHYFYDVWGQGTLVTVSS VL: DIVMTQSPDSLAVSLGERATINCKSSQSLLNARTGKNHLAWYQQKPGQPPKLLIYWASTRESGVPDRFSGSGSGTDFTLTISSLQAEDVAVYYCKQSYSHRTFGGGTKVEIK	MFI	45
SAD10319_P01_H01 (ADI-48623) (antibody, V domains shown, IgG; also called Ab235) VH: QVQLVQSGAEVKKPGASVKVSCKASGYTFDDYAMHWVRQAPGQRLEWMGWIDAGTGDTKYSQKFQGRVTITRDTSASTAYMELSSLRSEDTAVYYCARDHYHRYFYDVWGQGTLVTVSS VL: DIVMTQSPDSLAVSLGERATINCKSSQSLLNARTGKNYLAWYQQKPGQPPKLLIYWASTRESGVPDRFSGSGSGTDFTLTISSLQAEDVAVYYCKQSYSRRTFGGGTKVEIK	MFI	147

Quick one: give measured MFI pH 7.4 for SAD10318_P02_G04 (ADI-48593) (antibody, V domains shown, IgG; also called Ab158) VH: QVQLVQSGAEVKKPGASVKVSCKASGFNIKDYYMHWVRQAPGQRLEWMGWIDLENANTIYDAKFQGRVTITRDTSASTAYMELSSLRSEDTAVYYCARDAYGHYHYDVWGQGTLVTVSS VL: DIVMTQSPDSLAVSLGERATINCKSSQSLLHARTGKNYLAWYQQKPGQPPKLLIYWASTRESGVPDRFSGSGSGTDFTLTISSLQAEDVAVYYCKQSYHHRTFGGGTKVEIK
96

Quick one: give measured MFI pH 7.4 for SAD10318_P01_C01 (ADI-48575) (antibody, V domains shown, IgG; also called Ab113) VH: QVQLVQSGAEVKKPGASVKVSCKASGFNIKDYYMHWVRQAPGQRLEWMGWIDLENANTIYDAKFQGRVTITRDTSASTAYMELSSLRSEDTAVYYCARDAYHRYHYDVWGQGTLVTVSS VL: DIVMTQSPDSLAVSLGERATINCKSSQSLLNAHTHKNYLAWYQQKPGQPPKLLIYWASTRESGVPDRFSGSGSGTDFTLTISSLQAEDVAVYYCKQSHSHRTFGGGTKVEIK
81

Quick one: give measured MFI pH 7.4 for SAD10318_P04_H11 (ADI-48617) (antibody, V domains shown, IgG; also called Ab223) VH: QVQLVQSGAEVKKPGASVKVSCKASGFNIKDYYMHWVRQAPGQRLEWMGWIDLENANTIYDAKFQGRVTITRDTSASTAYMELSSLRSEDTAVYYCARDHYGRYFYDHWGQGTLVTVSS VL: DIVMTQYPDSLAVSLGERATINCKSSQSLLNAHTGHNYLAWYQQKPGQPPKLLIYWASTRESGVPDRFSGSGSGTDFTLTISSLQAEDVAVYYCHQSYSHRTFGGGTKVEIK
53
